Molecular target: human FOXP3 (FOXP3-6His) (Homo sapiens, UniProt Q9BZS1)
Construct: 6xHis (C); made in house; host or cells: E. coli BL21 (DE3)
Sequence (Q9BZS1 1-431): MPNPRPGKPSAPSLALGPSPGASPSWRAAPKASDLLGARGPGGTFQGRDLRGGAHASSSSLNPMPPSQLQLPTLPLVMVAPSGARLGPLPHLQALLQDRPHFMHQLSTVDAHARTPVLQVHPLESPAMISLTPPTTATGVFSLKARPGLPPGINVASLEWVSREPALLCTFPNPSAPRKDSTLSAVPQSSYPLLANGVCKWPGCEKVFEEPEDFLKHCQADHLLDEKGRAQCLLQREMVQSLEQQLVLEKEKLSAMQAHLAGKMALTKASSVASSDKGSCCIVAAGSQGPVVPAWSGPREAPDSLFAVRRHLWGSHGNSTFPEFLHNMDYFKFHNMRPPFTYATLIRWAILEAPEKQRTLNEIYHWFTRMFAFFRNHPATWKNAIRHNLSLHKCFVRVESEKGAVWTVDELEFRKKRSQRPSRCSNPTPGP
Test: Peptide binding to FOXP3 by surface plasmon resonance (SPR)
Conditions: peptides 1-20 μM; ratio to p60 (SEQ ID NO: 1)
Where no end group is shown, it is not given here. [ ]: non-standard residue; d: D form.
Could you please mark YES for values of Binding to Foxp3 Ratio binding Peptide/p60 (fold change) below 2 fold change and NO for values at or above it?

18 (RDLQSFRKMWPFFAM) [compound 18]    YES
29 (RDFQSFRRMWPFFAM) [compound 29]    YES
11 (RNFQSFRKMWPFFAM) [compound 11]    YES
16 (RDWQSFRKMWPFFAM) [compound 16]    NO
15 (RDAQSFRKMWPFFAM) [compound 15]    YES

INPUT: Take the substance Ac-GRAFQSFRKMWPFFAM-NH2 (C-terminus assumed) [compound 13] and say whether its Binding to Foxp3 Ratio binding Peptide/p60 (fold change) is less than 2 fold change.
OUTPUT: NO

INPUT: Here's an entry: 6 (R[dA]FQSFRKMWPFFAM) [compound 6] . Is its Binding to Foxp3 Ratio binding Peptide/p60 (fold change) below 2 fold change?
OUTPUT: NO

INPUT: Quick check: does 31 (RDFQSFRKMWRFFAM) [compound 31] have Binding to Foxp3 Ratio binding Peptide/p60 (fold change) under 2 fold change?
OUTPUT: NO

INPUT: # TODO verify Binding to Foxp3 Ratio binding Peptide/p60 (fold change) < 2 fold change strictly for this substance: 40 (RDFQSFRKMW[dA]FFAM-NH2; not fully specified (N-terminus)) [compound 40]
OUTPUT: NO

INPUT: Just wondering, is Binding to Foxp3 Ratio binding Peptide/p60 (fold change) of 5 (RAFQSFRKMWPFFAM) [compound 5] below 2 fold change?
OUTPUT: NO

INPUT: # check: Binding to Foxp3 Ratio binding Peptide/p60 (fold change) < 2 fold change for 30 (RDFQSFRKMWAFFAM) [compound 30]
OUTPUT: YES

====

Assay: Mouse liver microsomal stability
Type: in vitro ADME
Conditions: mouse liver microsomes, 20 min; read-out: % Remaining after 20 min
Where a SMILES comes first, the peptide text is derived from it.
Reported property: remaining at 20 min, 1 μM (%)
Please reply with the bare figure in % and do not write the unit itself.

INPUT: Output measured remaining at 20 min, 1 μM for this item: CSCC[C@@H]1NC(=O)[C@H](C)NC(=O)[C@H](Cc2ccccc2)NC(=O)[C@H](Cc2ccccc2)NC(=O)[C@@H]2CCCN2C(=O)[C@H](Cc2c[nH]c3ccccc23)NC(=O)[C@H](CCSC)NC(=O)[C@H](CCCCN)NC(=O)[C@H](CCCNC(=N)N)NC(=O)[C@H](Cc2ccccc2)NC(=O)[C@H](C)NC(=O)[C@H](CCC(N)=O)NC(=O)[C@H](Cc2ccccc2)NC(=O)[C@@H](C)NC(=O)[C@H](CCCNC(=N)N)NCCOCCNC1=O
OUTPUT: 97.3

INPUT: Give the measured remaining at 20 min, 1 μM for CSCC[C@@H]1NC(=O)[C@H](C)NC(=O)[C@H](Cc2ccccc2)NC(=O)[C@H](Cc2ccccc2)NC(=O)[C@@H]2CCCN2C(=O)[C@H](Cc2c[nH]c3ccccc23)NC(=O)[C@H](CCSC)NC(=O)[C@H](CCCCN)NC(=O)[C@H](CCCNC(=N)N)NC(=O)[C@H](Cc2ccccc2)NC(=O)[C@H](C)NC(=O)[C@H](CCC(N)=O)NC(=O)[C@H](Cc2ccccc2)NC(=O)[C@H](C)NC(=O)[C@H](CCCNC(=N)N)NC1=O [compound 50] (cyclo(RAFQAFRKMWPFFAM))
OUTPUT: 12

====

Property: remaining at 1 h, 1 μM; scope: individual compounds
Assay: Human liver microsomal stability
Format: in vitro ADME
Details: human liver microsomes, 60 min; read-out: % Remaining after 60 min
In your response, put the unit directly after the numeric value.

Reference set (2 entries):
CSCC[C@@H]1NC(=O)[C@H](C)NC(=O)[C@H](Cc2ccccc2)NC(=O)[C@H](Cc2ccccc2)NC(=O)[C@@H]2CCCN2C(=O)[C@H](Cc2c[nH]c3ccccc23)NC(=O)[C@H](CCSC)NC(=O)[C@H](CCCCN)NC(=O)[C@H](CCCNC(=N)N)NC(=O)[C@H](Cc2ccccc2)NC(=O)[C@H](C)NC(=O)[C@H](CCC(N)=O)NC(=O)[C@H](Cc2ccccc2)NC(=O)[C@@H](C)NC(=O)[C@H](CCCNC(=N)N)NCCOCCNC1=O    11%
CSCC[C@@H]1NC(=O)[C@H](C)NC(=O)[C@H](Cc2ccccc2)NC(=O)[C@H](Cc2ccccc2)NC(=O)[C@@H]2CCCN2C(=O)[C@H](Cc2c[nH]c3ccccc23)NC(=O)[C@H](CCSC)NC(=O)[C@H](CCCCN)NC(=O)[C@H](CCCNC(=N)N)NC(=O)[C@H](Cc2ccccc2)NC(=O)[C@H](C)NC(=O)[C@H](CCC(N)=O)NC(=O)[C@H](Cc2ccccc2)NC(=O)[C@@H](C)NC(=O)[C@H](CCCNC(=N)N)NCCNC(=O)CNC1=O    2.8%

INPUT: Note down remaining at 1 h, 1 μM recorded for CSCC[C@@H]1NC(=O)[C@H](C)NC(=O)[C@H](Cc2ccccc2)NC(=O)[C@H](Cc2ccccc2)NC(=O)[C@@H]2CCCN2C(=O)[C@H](Cc2c[nH]c3ccccc23)NC(=O)[C@H](CCSC)NC(=O)[C@H](CCCCN)NC(=O)[C@H](CCCNC(=N)N)NC(=O)[C@H](Cc2ccccc2)NC(=O)[C@H](C)NC(=O)[C@H](CCC(N)=O)NC(=O)[C@H](Cc2ccccc2)NC(=O)[C@@H](C)NC(=O)[C@H](CCCNC(=N)N)NCCCNC1=O
OUTPUT: 40.1%

====

Assay: Mouse liver microsomal stability
Type: in vitro ADME
Conditions: mouse liver microsomes, 20 min; read-out: % Remaining after 20 min
Where a SMILES comes first, the peptide text is derived from it. [ ]: non-standard residue; d: D form.
// remaining at 20 min, 1 μM lookup, one value per entry
Value expressed in %; do not type the unit.

Guide cases for remaining at 20 min, 1 μM, answers given:
CSCC[C@@H]1NC(=O)[C@H](C)NC(=O)[C@H](Cc2ccccc2)NC(=O)[C@H](Cc2ccccc2)NC(=O)[C@@H]2CCCN2C(=O)[C@H](Cc2c[nH]c3ccccc23)NC(=O)[C@H](CCSC)NC(=O)[C@H](CCCCN)NC(=O)[C@H](CCCNC(=N)N)NC(=O)[C@H](Cc2ccccc2)NC(=O)[C@H](C)NC(=O)[C@H](CCC(N)=O)NC(=O)[C@H](Cc2ccccc2)NC(=O)[C@@H](C)NC(=O)[C@H](CCCNC(=N)N)NCCCNC1=O    98.9
CSCC[C@H](NC(=O)[C@H](C)NC(=O)[C@H](Cc1ccccc1)NC(=O)[C@H](Cc1ccccc1)NC(=O)[C@@H]1CCCN1C(=O)[C@H](Cc1c[nH]c2ccccc12)NC(=O)[C@H](CCSC)NC(=O)[C@H](CCCCN)NC(=O)[C@H](CCCNC(=N)N)NC(=O)[C@H](Cc1ccccc1)NC(=O)[C@H](CO)NC(=O)[C@H](CCC(N)=O)NC(=O)[C@H](Cc1ccccc1)NC(=O)[C@@H](CC(=O)O)NC(=O)[C@@H](N)CCCNC(=N)N)C(=O)O [compound 3] (H-R[dD]FQSFRKMWPFFAM-OH)    0
CSCC[C@@H]1NC(=O)[C@H](C)NC(=O)[C@H](Cc2ccccc2)NC(=O)[C@H](Cc2ccccc2)NC(=O)[C@@H]2CCCN2C(=O)[C@H](Cc2c[nH]c3ccccc23)NC(=O)[C@H](CCSC)NC(=O)[C@H](CCCCN)NC(=O)[C@H](CCCNC(=N)N)NC(=O)[C@H](Cc2ccccc2)NC(=O)[C@H](C)NC(=O)[C@H](CCC(N)=O)NC(=O)[C@H](Cc2ccccc2)NC(=O)[C@@H](C)NC(=O)[C@H](CCCNC(=N)N)NCCNC(=O)CNC1=O    57

Now look at this one.
INPUT: Look up and report measured remaining at 20 min, 1 μM for this entry: CSCC[C@@H]1NC(=O)[C@H](C)NC(=O)[C@H](Cc2ccccc2)NC(=O)[C@H](Cc2ccccc2)NC(=O)[C@@H]2CCCN2C(=O)[C@H](Cc2c[nH]c3ccccc23)NC(=O)[C@H](CCSC)NC(=O)[C@H](CCCCN)NC(=O)[C@H](CCCNC(=N)N)NC(=O)[C@H](Cc2ccccc2)NC(=O)[C@H](C)NC(=O)[C@H](CCC(N)=O)NC(=O)[C@H](Cc2ccccc2)NC(=O)[C@@H](C)NC(=O)[C@H](CCCNC(=N)N)NC1=O [compound 51] (cyclo(R[dA]FQAFRKMWPFFAM))
OUTPUT: 62.7
